Target: amyloid β peptide (Aβ40 fibrils) (Homo sapiens, UniProt P05067)
Sequence (P05067 672-711): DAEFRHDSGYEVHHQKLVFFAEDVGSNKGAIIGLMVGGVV
Experiment: direct fluorescence titration of Aβ[…] fibrils, one-site fit
Assay type: binding
quantity_measured: pKd
Lab note: report pKd as minus log10 of the concentration in molar units, number only.

Tell me the measured pKd of CCN(CC)c1ccc(-c2nc3ccccc3s2)c(O)c1 [L1] , please.
5.33

* * *

Target: amyloid β peptide (Aβ40 fibrils) (Homo sapiens)
Assay: ThT fluorescence competition assay with Aβ[…] fibrils
quantity_measured: pKi
Lab note: report pKi as minus log10 of the concentration in molar units, number only.

Tell me the measured pKi of COc1cccc(-c2nc3ccccc3s2)c1O , please.
7.82
